SYSTEM UNDER TEST: Structural capsid protein (Human immunodeficiency virus 1)
Sequence (Q76129 whole entry): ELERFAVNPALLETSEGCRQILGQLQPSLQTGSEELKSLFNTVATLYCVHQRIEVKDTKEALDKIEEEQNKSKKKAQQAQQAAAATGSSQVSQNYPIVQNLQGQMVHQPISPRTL
ASSAY PROCEDURE: Inhibition of HIV-1 NL4-3 monomeric capsid protein
REPORTED PROPERTY: EC50 (nM)
Give bare numbers, in nM.

Answered cases to consult:
CHEM SMILES: NC(=O)c1cccc(-c2cccnc2[C@H](Cc2cc(F)cc(F)c2)NC(=O)Cn2nc(C(F)(F)F)c3c2C(F)(F)[C@@H]2C[C@H]32)c1
EC50 / nM: 167
//
CHEM SMILES: Cn1nc(NS(C)(=O)=O)c2c(Cl)ccc(-c3ccc(C#CC(C)(C)S(C)(=O)=O)nc3[C@H](Cc3cc(F)cc(F)c3)NC(=O)Cn3nc(C(F)(F)F)c4c3C(F)(F)[C@@H]3C[C@H]43)c21
EC50 / nM: 0.2
//
CHEM SMILES: CC(C)(C#Cc1ccc(-c2ccc(Cl)c3c(NS(C)(=O)=O)nn(CC(F)(F)F)c23)c([C@H](Cc2cc(F)cc(F)c2)NC(=O)Cn2nc(C(F)(F)F)c3c2C(F)(F)[C@@H]2C[C@H]32)n1)S(C)(=O)=O
EC50 / nM: 0.05
//
CHEM SMILES: Cn1nc(NS(C)(=O)=O)c2cccc(-c3cccnc3[C@H](Cc3cc(F)cc(F)c3)NC(=O)Cn3nc(C(F)(F)F)c4c3C(F)(F)[C@@H]3C[C@H]43)c21
EC50 / nM: 12
//
CHEM SMILES: COc1ccc(N(C)C(=O)[C@H](Cc2ccccc2)NC(=O)Cc2c[nH]c3ccc(O)cc23)cc1
EC50 / nM: 52

Hey, quick one: what's EC50 for each of these?
1. NC(=O)c1cccc(-c2cccnc2[C@H](Cc2cc(F)cc(F)c2)NC(=O)Cc2c[nH]c3ccc(O)cc23)c1
2. Cn1nc(N)c2cccc(-c3cccnc3[C@H](Cc3cc(F)cc(F)c3)NC(=O)Cn3nc(C(F)(F)F)c4c3C(F)(F)[C@@H]3C[C@H]43)c21

1: 150; 2: 19

====

SYSTEM UNDER TEST: Prostaglandin E2 receptor EP2 subtype (Homo sapiens)
Sequence (P43116 whole entry): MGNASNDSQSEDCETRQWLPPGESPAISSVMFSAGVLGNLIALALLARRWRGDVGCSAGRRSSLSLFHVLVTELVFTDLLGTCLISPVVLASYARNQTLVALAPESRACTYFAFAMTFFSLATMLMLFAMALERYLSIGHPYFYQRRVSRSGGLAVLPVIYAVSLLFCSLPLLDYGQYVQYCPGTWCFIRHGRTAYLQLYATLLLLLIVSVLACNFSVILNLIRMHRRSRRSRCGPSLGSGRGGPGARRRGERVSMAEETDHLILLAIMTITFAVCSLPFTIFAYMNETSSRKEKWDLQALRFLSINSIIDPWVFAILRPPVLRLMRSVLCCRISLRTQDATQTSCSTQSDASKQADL
ASSAY PROCEDURE: Agonist activity at human EP2 receptor expressed in HEK293 cells
REPORTED PROPERTY: pEC50
Answers are plain numbers, as −log10 of the molar value.

Would you kindly share the measured pEC50 for CC(C)OC(=O)CNc1cccc(CN(Cc2ccc(-n3cccn3)cc2)S(=O)(=O)c2cccnc2)n1 [OMIDENEPAG ISOPROPYL] ?
8.96

====

ASSAY PROCEDURE: Half life in human
Assay type: ADME
REPORTED PROPERTY: half-life (min)
Give bare numbers, in min.

Would you kindly share the measured half-life for "Cc1[nH]c2ccccc2c1CC(=O)N[C@@H](Cc1ccccc1)C(=O)N(C)c1ccccc1" ?
3

====

ASSAY PROCEDURE: Activation of Myosin ATPase activity in bovine Cardio-myofibril
Design: species or system Bos taurus
REPORTED PROPERTY: EC50
Please state the value followed by its unit.

Would you kindly share the measured EC50 for "CC(C)n1c(=O)cc(N[C@@H](C)c2ccccc2)[nH]c1=O" ?
711 nM

====

SYSTEM UNDER TEST: Tyrosine-protein kinase JAK2 (Homo sapiens)
Sequence (O60674 whole entry): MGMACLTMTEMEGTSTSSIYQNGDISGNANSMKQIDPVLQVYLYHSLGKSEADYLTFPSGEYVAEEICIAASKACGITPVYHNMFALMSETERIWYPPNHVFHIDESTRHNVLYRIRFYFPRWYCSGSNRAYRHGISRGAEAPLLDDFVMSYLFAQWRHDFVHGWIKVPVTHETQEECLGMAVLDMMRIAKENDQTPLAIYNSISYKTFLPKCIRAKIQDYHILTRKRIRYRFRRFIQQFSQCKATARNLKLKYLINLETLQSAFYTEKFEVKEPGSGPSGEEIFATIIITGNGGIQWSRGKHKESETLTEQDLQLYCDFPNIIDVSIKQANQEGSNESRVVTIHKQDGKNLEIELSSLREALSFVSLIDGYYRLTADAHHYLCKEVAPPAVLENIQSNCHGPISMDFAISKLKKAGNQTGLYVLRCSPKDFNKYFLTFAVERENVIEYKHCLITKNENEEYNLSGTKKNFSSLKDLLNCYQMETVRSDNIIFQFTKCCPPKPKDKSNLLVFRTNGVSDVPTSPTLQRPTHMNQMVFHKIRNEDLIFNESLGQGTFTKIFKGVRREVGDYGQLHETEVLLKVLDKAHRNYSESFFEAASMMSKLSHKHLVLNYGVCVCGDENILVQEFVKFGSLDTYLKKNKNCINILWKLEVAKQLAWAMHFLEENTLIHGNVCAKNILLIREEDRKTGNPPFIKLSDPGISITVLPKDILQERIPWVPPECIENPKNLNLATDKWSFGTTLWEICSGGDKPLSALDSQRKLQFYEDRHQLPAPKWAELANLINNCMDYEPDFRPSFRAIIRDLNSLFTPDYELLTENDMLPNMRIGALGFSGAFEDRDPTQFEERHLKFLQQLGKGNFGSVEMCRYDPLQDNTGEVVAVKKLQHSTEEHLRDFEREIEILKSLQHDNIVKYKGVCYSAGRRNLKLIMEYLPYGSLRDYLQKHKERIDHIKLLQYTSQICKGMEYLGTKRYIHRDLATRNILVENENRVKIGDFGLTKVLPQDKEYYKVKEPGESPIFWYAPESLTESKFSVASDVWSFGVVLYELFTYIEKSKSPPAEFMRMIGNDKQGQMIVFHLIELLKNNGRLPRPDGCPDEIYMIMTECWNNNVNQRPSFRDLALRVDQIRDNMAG
ASSAY PROCEDURE: Inhibition of N-terminal human recombinant JAK2 using poly(Glu,Ala,Tyr) as substrate incubated for 2 hrs in presence of ATP by luminescence method
REPORTED PROPERTY: IC50 (µM)
Answers are plain numbers, in µM.

Would you kindly share the measured IC50 for "COc1cc(-c2ccnc(Nc3cccc(N(C)C)c3)n2)ccc1O" ?
0.023

Cited source: ChEMBL document CHEMBL5614398
